parameter: melting point

1. CN(C)c1cc2c(cc1C(F)(F)F)NC(=O)CC(c1cccc(-c3c(CO)cnn3C)c1)=N2 [Example 72]    243 to 244 °C
2. CC(C)N(C)c1cc2c(cc1C(F)(F)F)NC(=O)CC(c1cccc(-n3nncc3CN(C)C)c1)=N2 [Example 150]    197 °C

*Q* Look up melting point of O=C1CC(c2cccc(-n3nncc3CO)c2)=Nc2cc(N3CCCC3)c(F)cc2N1 [Example 58] and report it.
*A* 184 to 185 °C

----------
Parameter melting point: see the listing below.

Past entries and their recorded results:
1) CN(C)c1cc2c(cc1C(F)(F)F)NC(=O)CC(c1cccc(-c3nc(CO)cs3)c1)=N2 [Example 201]    198 to 199 °C
2) CCN(CC)c1cc2c(cc1Cl)NC(=O)CC(c1cccc(-n3nncc3CO)c1)=N2 [Example 30]    208 °C (dec.)
3) O=C1CC(c2cccc(-n3ccnc3)c2)=Nc2cc(OCC(F)(F)F)c(-c3ccccc3F)cc2N1 [Example 23]    208 to 210 °C

Moving on to another molecule below.
*Q* Return reported melting point. Input molecule: CCCN(C)c1cc2c(cc1Cl)NC(=O)CC(c1cccc(-c3nc(CO)co3)c1)=N2 [Example 188]
*A* 166 to 167 °C

Each recorded value in this set is attributed to patent US6544985B2.
